test system: RSV B Washington strain; assay: Assessment of RSV induced CPE in HEp2 cells (RSV B Washington strain); format: cell-based; conditions: human respiratory syncytial virus, HEp-2, 144 h; HEp2 cells, 1 MOI, 6 days; read-out: RSV B CPE IC50
pIC50: −log10 of the molar value.
observedProperty: pIC50

>  <compoundStructureString>
Cc1cc(C(=O)Nc2ccc(C(=O)N3CCc4cc(C(=O)Nc5ccccc5F)sc4-c4ccccc43)cc2)c(N2CC3(CCOCC3)C2)nc1C

>  <observedProperty>
pIC50

>  <number>
7.23

$$$$
>  <compoundStructureString>
Cc1cnc(N2CC3(CCOCC3)C2)c(C(=O)Nc2ccc(C(=O)N3CCc4cc(C(=O)Nc5ccccc5)sc4-c4ccccc43)cc2)c1

>  <observedProperty>
pIC50

>  <number>
7.42

$$$$
>  <compoundStructureString>
O=C(Nc1c(F)cc(F)cc1F)c1cc2c(s1)-c1ccccc1N(C(=O)c1ccc(NC(=O)c3cccnc3N3CC4(CCOCC4)C3)cc1)CC2

>  <observedProperty>
pIC50

>  <number>
7.38

$$$$
>  <compoundStructureString>
Cc1ccccc1NC(=O)c1cc2c(s1)-c1ccccc1N(C(=O)c1ccc(NC(=O)c3cc(C)c(C)nc3N3CC4(CCOCC4)C3)cc1)CC2

>  <observedProperty>
pIC50

>  <number>
7.22

$$$$
>  <compoundStructureString>
Cc1ccc(C(=O)Nc2ccc(C(=O)N3CCc4cc(C(=O)Nc5c(F)cc(F)cc5F)sc4-c4ccccc43)cc2)c(N2CC3(CCOCC3)C2)n1

>  <observedProperty>
pIC50

>  <number>
8.77

$$$$
>  <compoundStructureString>
O=C(Nc1c(F)cc(F)cc1F)c1cc2c(s1)-c1ccccc1N(C(=O)c1ccc(NC(=O)c3cc4ccccc4nc3N3CC4(CCOCC4)C3)cc1)CC2

>  <observedProperty>
pIC50

>  <number>
8.52

$$$$
>  <compoundStructureString>
O=C(Nc1ccc(F)cc1F)c1cc2c(s1)-c1ccccc1N(C(=O)c1ccc(NC(=O)c3cccnc3N3CC4(CCOCC4)C3)cc1)CC2

>  <observedProperty>
pIC50

>  <number>
6.89

$$$$
>  <compoundStructureString>
Cc1cc(C(=O)Nc2ccc(C(=O)N3CCc4cc(C(=O)Nc5c(F)cccc5Cl)sc4-c4ccccc43)cc2)c(N2CC3(CCOCC3)C2)nc1C

>  <observedProperty>
pIC50

>  <number>
8.15

$$$$
>  <compoundStructureString>
Cc1cnc(N2CC3(CCOCC3)C2)c(C(=O)Nc2ccc(C(=O)N3CCc4cc(C(=O)Nc5c(F)cccc5C5CC5)sc4-c4ccccc43)cc2)c1

>  <observedProperty>
pIC50

>  <number>
7.01

$$$$
>  <compoundStructureString>
Cc1cnc(N2CC3(CCOCC3)C2)c(C(=O)Nc2ccc(C(=O)N3CCc4cc(C(=O)Nc5c(F)cccc5OCCO)sc4-c4ccccc43)cc2)c1

>  <observedProperty>
pIC50

>  <number>
7.05

$$$$
>  <compoundStructureString>
O=C(Nc1ccc(F)cc1F)c1cc2c(s1)-c1ccccc1N(C(=O)c1ccc(NC(=O)c3cc4ccccc4nc3N3CC4(CCOCC4)C3)cc1)CC2

>  <observedProperty>
pIC50

>  <number>
7.87

$$$$
>  <compoundStructureString>
O=C(Nc1c(F)cccc1Cl)c1cc2c(s1)-c1ccccc1N(C(=O)c1ccc(NC(=O)c3cc4c(nc3N3CC5(CCOCC5)C3)CCOC4)cc1)CC2

>  <observedProperty>
pIC50

>  <number>
8.21

$$$$

###

Known CC50 at 5 days of a selection of compounds
assay: Cell viability: resazurin assay; assay type: cell-based, human; settings: human, HEp2 cells

>  <compoundStructureString>
O=C(Nc1c(F)cccc1Cl)c1cc2c(s1)-c1ccccc1N(C(=O)c1ccc(NC(=O)c3cccnc3N3CC4(CCOCC4)C3)cc1F)CC2

>  <CC50 at 5 days>
> 13.5 µM

$$$$
>  <compoundStructureString>
O=C(Nc1c(F)cccc1Cl)c1cc2c(s1)-c1ccccc1N(C(=O)c1ccc(NC(=O)c3cccnc3N3CC4(CCOCC4)C3)cc1)CC2

>  <CC50 at 5 days>
> 13.8 µM

$$$$
>  <compoundStructureString>
Cc1cc(C(=O)Nc2ccc(C(=O)N3CCc4cc(C(=O)Nc5ccc(F)cc5F)sc4-c4ccccc43)cc2)c(N2CC3(CCOCC3)C2)nc1C

>  <CC50 at 5 days>
> 13.6 µM

$$$$
>  <compoundStructureString>
Cc1ccc(NC(=O)c2cc3c(s2)-c2ccccc2N(C(=O)c2ccc(NC(=O)c4cccnc4N4CC5(CCOCC5)C4)cc2)CC3)c(F)c1

>  <CC50 at 5 days>
> 14.2 µM

$$$$
>  <compoundStructureString>
O=C(Nc1c(F)cccc1F)c1cc2c(s1)-c1ccccc1N(C(=O)c1ccc(NC(=O)c3cccnc3N3CC4(CCOCC4)C3)cc1)CC2

>  <CC50 at 5 days>
> 14.2 µM

$$$$
>  <compoundStructureString>
O=C(Nc1ccccc1Cl)c1cc2c(s1)-c1ccccc1N(C(=O)c1ccc(NC(=O)c3cccnc3N3CC4(CCOCC4)C3)cc1)CC2

>  <CC50 at 5 days>
> 14.2 µM

$$$$
>  <compoundStructureString>
Cc1cnc(N2CC3(CCOCC3)C2)c(C(=O)Nc2ccc(C(=O)N3CCc4cc(C(=O)Nc5ccccc5C)sc4-c4ccccc43)cc2)c1

>  <CC50 at 5 days>
> 14.3 µM

$$$$
>  <compoundStructureString>
Cc1ccc(C(=O)Nc2ccc(C(=O)N3CCc4cc(C(=O)Nc5c(C)cccc5F)sc4-c4ccccc43)cc2)c(N2CC3(CCOCC3)C2)n1

>  <CC50 at 5 days>
> 14 µM

$$$$
>  <compoundStructureString>
Cc1cnc(N2CCC3(CCOCC3)CC2)c(C(=O)Nc2ccc(C(=O)N3CCc4cc(C(=O)Nc5c(C)cccc5F)sc4-c4ccccc43)cc2)c1

>  <CC50 at 5 days>
> 13.4 µM

$$$$
>  <compoundStructureString>
Cc1cc(C(=O)Nc2ccc(C(=O)N3CCc4cc(C(=O)Nc5ccccc5F)sc4-c4ccccc43)cc2)c(N2CC3(CCOCC3)C2)nc1C

>  <CC50 at 5 days>
> 14 µM

$$$$
>  <compoundStructureString>
Cc1cnc(N2CC3(CCOCC3)C2)c(C(=O)Nc2ccc(C(=O)N3CCc4cc(C(=O)Nc5c(C)cccc5C#N)sc4-c4ccccc43)cc2)c1

>  <CC50 at 5 days>
> 13.8 µM

$$$$
>  <compoundStructureString>
O=C(Nc1c(F)cc(F)cc1F)c1cc2c(s1)-c1ccccc1N(C(=O)c1ccc(NC(=O)c3cccnc3N3CC4(CCOCC4)C3)cc1)CC2

>  <CC50 at 5 days>
> 13.8 µM

$$$$
>  <compoundStructureString>
O=C(Nc1c(F)cccc1F)c1cc2c(s1)-c1ccccc1N(C(=O)c1ccc(NC(=O)c3cc4sccc4nc3N3CC4(CCOCC4)C3)cc1)CC2

>  <CC50 at 5 days>
> 13.1 µM

$$$$
>  <compoundStructureString>
O=C(Nc1c(F)cccc1F)c1cc2c(s1)-c1ccccc1N(C(=O)c1ccc(NC(=O)c3cc(C4CC4)cnc3N3CC4(CCOCC4)C3)cc1)CC2

>  <CC50 at 5 days>
> 13.4 µM

$$$$
>  <compoundStructureString>
Cc1cccc(F)c1NC(=O)c1cc2c(s1)-c1ccccc1N(C(=O)c1ccc(NC(=O)c3cccnc3N3CC4(CCOCC4)C3)cc1)CC2

>  <CC50 at 5 days>
> 14.2 µM

$$$$
>  <compoundStructureString>
O=C(Nc1ccc(Cl)cc1F)c1cc2c(s1)-c1ccccc1N(C(=O)c1ccc(NC(=O)c3cccnc3N3CC4(CCOCC4)C3)cc1)CC2

>  <CC50 at 5 days>
> 13.8 µM

$$$$
>  <compoundStructureString>
CCc1cnc(N2CC3(CCOCC3)C2)c(C(=O)Nc2ccc(C(=O)N3CCc4cc(C(=O)Nc5c(C)cccc5F)sc4-c4ccccc43)cc2)c1

>  <CC50 at 5 days>
> 13.7 µM

$$$$
>  <compoundStructureString>
COc1cccc(F)c1NC(=O)c1cc2c(s1)-c1ccccc1N(C(=O)c1ccc(NC(=O)c3cc(C)cnc3N3CC4(CCOCC4)C3)cc1)CC2

>  <CC50 at 5 days>
> 13.7 µM

$$$$
>  <compoundStructureString>
Cc1cnc(N2CC3(CCOCC3)C2)c(C(=O)Nc2ccc(C(=O)N3CCc4cc(C(=O)Nc5c(F)cccc5C#N)sc4-c4ccccc43)cc2)c1

>  <CC50 at 5 days>
> 13.8 µM

$$$$
>  <compoundStructureString>
C=C(C)c1cnc(N2CC3(CCOCC3)C2)c(C(=O)Nc2ccc(C(=O)N3CCc4cc(C(=O)Nc5c(F)cccc5F)sc4-c4ccccc43)cc2)c1

>  <CC50 at 5 days>
> 13.4 µM

$$$$
>  <compoundStructureString>
Cc1cnc(N2CC3(CCOCC3)C2)c(C(=O)Nc2ccc(C(=O)N3CCc4cc(C(=O)Nc5c(F)cccc5F)sc4-c4ccccc43)cc2)c1

>  <CC50 at 5 days>
> 13.9 µM

$$$$
>  <compoundStructureString>
Cc1cccc(F)c1NC(=O)c1cc2c(s1)-c1ccccc1N(C(=O)c1ccc(NC(=O)c3cc4c(nc3N3CC5(CCOCC5)C3)CCOC4)cc1)CC2

>  <CC50 at 5 days>
> 13.2 µM

$$$$
>  <compoundStructureString>
Cc1cnc(N2CC3(CCOCC3)C2)c(C(=O)Nc2ccc(C(=O)N3CCc4cc(C(=O)Nc5c(C)cccc5C)sc4-c4ccccc43)cc2)c1

>  <CC50 at 5 days>
> 14 µM

$$$$
>  <compoundStructureString>
C#Cc1ccc(NC(=O)c2cc3c(s2)-c2ccccc2N(C(=O)c2ccc(NC(=O)c4cccnc4N4CC5(CCOCC5)C4)cc2)CC3)cc1

>  <CC50 at 5 days>
> 14.4 µM

$$$$
